test system: SR leukemia; experiment: NCI tumour cell line growth inhibition, 48 h
measured.attribute: TGI

>>> result_value("C[C@@]12CC=C3c4nc(Nc5cccc(O)c5)sc4CC[C@]3(C)[C@H]1CC[C@]1(C)C(=O)CC[C@@H]21")
"> 100 µM"

Q. Which TGI is reported for this molecule? "COc1cc2c3c(n(CCCNC(=O)OCC4c5ccccc5-c5ccccc54)c(=O)c2cc1OC)-c1cc2c(cc1/C3=C\CCNC(=O)OCC1c3ccccc3-c3ccccc31)OCO2"
A. 21 µM

Q. Which TGI is reported for this molecule? "CN1C(=O)c2cccc3cc([N+](=O)[O-])cc(c23)C1=O"
A. > 10 µM

----------
system: A498 renal; assay: NCI tumour cell line growth inhibition, 48 h
Values of TGI greater than or equal to 20 µM map to True; values below map to False.

>>> class("Cc1ccc2c(c1)C(C(=O)N[C@@H]1C(=O)N3[C@@H]1SC(C)(C)[C@@H]3C(=O)O)OCCC2 (stereo partly specified)")
"True"
>>> class("CC(=O)[O-].CCN(CC)c1ccc(C=NCCN=Cc2ccc(N(CC)CC)cc2[O-])c([O-])c1.[Mn+3]")
"True"
>>> class("COc1cc(/C=C/c2cc(/C=C/c3ccc(O)c(OC)c3)n(C(=O)Nc3ccc(F)c(Cl)c3)n2)ccc1O")
"False"
>>> class("COC1=CC(=O)c2nc(-c3cccc(C)n3)[nH]c2C1=O")
"True"
>>> class("N#CCN1C(=O)c2cccc3cc([N+](=O)[O-])cc(c23)C1=O")
"True"

Q. Could you tell me if the measured TGI of "Oc1ccccc1C(Sc1nc2ccccc2s1)Sc1nc2ccccc2s1" reaches 20 µM or more?
A. True

Q. Could you tell me if the measured TGI of "NS(=O)(=O)c1ccc(N=Nc2c(O)[nH]c3ccc(-c4cnco4)cc23)cc1" reaches 20 µM or more?
A. True

Q. Could you tell me if the measured TGI of "O=c1[nH]nc(-c2ccccc2)c2[nH]c3c4ccccc4ccc3c12" reaches 20 µM or more?
A. True

Q. Could you tell me if the measured TGI of "CCOC(=O)c1c(C)n(Cc2ccc(Cl)cc2Cl)c2c1c(CN(C)C)c(O)c1[nH]cnc12" reaches 20 µM or more?
A. True

----------
tested on: NCI/ADR-RES ovarian; test: NCI tumour cell line growth inhibition, 48 h
Parameter TGI: see the listing below.

>>> result_value("CC1(C)NC2C(=O)c3c([nH]c4ccccc34)[C@]3(C)CCC1CC23 (stereo not given in full)")
"> 100 µM"
>>> result_value("NS(=O)(=O)c1ccc(NC2(C(=O)O)CCCC2)cc1")
"> 100 µM"
>>> result_value("O=C(O)C1OC(n2cc(F)c(=O)[nH]c2=O)CC1O (stereo not given)")
"> 100 µM"
>>> result_value("C=C1C(=O)O[C@@H]2/C=C(\\C)CC/C=C(/COC(C)=O)C[C@@H](OC(C)=O)[C@@H]12")
"57.8 µM"
>>> result_value("COc1cc(/C=C2/C[C@H]3[C@@H]4CC=C5C[C@@H](O)CC[C@]5(C)[C@H]4CC[C@]3(C)NC2=O)cc(OC)c1OC")
"> 65.2 µM"
>>> result_value("CCN(CC)C(=S)N/N=C(/C)c1cccc(/C(C)=N\\NC(=S)N(CC)CC)n1")
"10.5 µM"

Q. Which TGI is reported for this compound? "CN(C)C(=O)c1cc2cnc(Nc3ccc(-c4csc5c(=S)cc(N6CCOCC6)oc45)cc3)nc2n1C1CCCC1"
A. > 50 µM

Q. Which TGI is reported for this compound? "COCN(CCC1=CCCCC1)C(=O)OC"
A. > 100 µM

Q. Which TGI is reported for this compound? COC1=C(C)C(=O)c2c(c(COC(N)=O)c3n2CC2C3N2C)C1=O (stereo not given)
A. 0.336 µM

Q. Which TGI is reported for this compound? Cc1ccc([N+](=O)[O-])cc1S(=O)(=O)Nc1ccc(C2=NNC(c3ccccc3)C2)cc1 (stereo not given)
A. 92.2 µM

Q. Which TGI is reported for this compound? "C[C@@]12CC=C3c4nc(Nc5cccc(O)c5)sc4CC[C@]3(C)[C@H]1CC[C@]1(C)C(=O)CC[C@@H]21"
A. > 100 µM

Q. Which TGI is reported for this compound? "COC(=O)[C@H](C)NC(=O)NC(=O)NC(=O)CI"
A. 43 µM

Q. Which TGI is reported for this compound? "O=S(=O)(N=S(c1ccccc1)c1ccccc1)c1ccccc1"
A. > 100 µM

Q. Which TGI is reported for this compound? CC1=NNC(N)=N/C1=C\C(Sc1ccc(Cl)cc1)c1ccc([N+](=O)[O-])cc1 (stereo not given)
A. > 100 µM

Q. Which TGI is reported for this compound? NC(Cc1ccccc1)C(=O)N[C@H]1c2ccsc2/C(=N/O)[C@H]1O (stereo not given in full)
A. > 100 µM

Q. Which TGI is reported for this compound? CC(=O)OCC12C(=O)C[C@@H](C)C3(CC(c4ccoc4)OC3=O)C1CCC(OC(C)=O)C21CO1 (stereo not given in full)
A. > 100 µM

Q. Which TGI is reported for this compound? CC1OC(OC2C(O[C@H]3CC[C@@]4(C)C(=CC[C@H]5[C@@H]6C[C@@H]7O[C@]8(CC[C@@H](CO)CO8)[C@@H](C)[C@@H]7[C@@]6(C)CC[C@@H]54)C3)OC(CO)C(O)C2OC2OC(CO)C(O)C(O)C2O)C(O)C(O)C1O (stereo not given in full)
A. 3.76 µM

Q. Which TGI is reported for this compound? "COc1ccc(/C=C/c2ccnc3ccccc23)c(OC)c1"
A. > 10 µM

Q. Which TGI is reported for this compound? "CC(C)n1nc(-c2cc3cc(O)ccc3[nH]2)c2c(N)ncnc21"
A. 7.22 µM

----------
Parameter TGI: see the listing below.
test system: T-47D breast; assay: NCI tumour cell line growth inhibition, 48 h

>>> result_value("O=C(O)Cc1cccc2c(=O)c3ccccc3oc12")
"61.7 µM"
>>> result_value("CCN(CC)C(=O)Cn1c(C)cc2ccccc21")
"> 100 µM"
>>> result_value("N#CC(NNC(=O)Cc1ccccc1)c1c(O)ccc2ccccc12 (centres undefined)")
"60.4 µM"
>>> result_value("C[C@]12CCC(=O)O[C@H]1CCCCO2")
"> 100 µM"

Next, consider the following molecule.
Q. Which TGI is reported for this molecule? "CCOC(=O)N/N=C(/N)c1cccc([N+](=O)[O-])c1"
A. > 100 µM

----------
tested on: LOX IMVI melanoma; test: NCI tumour cell line growth inhibition, 48 h
Parameter TGI: see the listing below.

Examples from the recorded data:
>>> result_value("Cn1cc(NC(=O)c2cc(NC(=O)CN=C(N)N)cn2C)cc1C(=O)NCCC(=N)N")
"> 100 µM"
>>> result_value("c1cc(CNC23CC4CC(CC(C4)C2)C3)cc(C[N+](Cc2cccc(CNC34CC5CC(CC(C5)C3)C4)c2)(Cc2cccc(CNC34CC5CC(CC(C5)C3)C4)c2)Cc2cccc(CNC34CC5CC(CC(C5)C3)C4)c2)c1 (stereo not given)")
"5.3 µM"
>>> result_value("COc1ccccc1CNCCCN1C(=O)c2ccc3c4c(ccc(c24)C1=O)C(=O)N(CCCOCCCCOCCCN)C3=O")
"3.01 µM"
>>> result_value("O=C1CSC(c2cccc(Oc3ccccc3)c2)N1c1ccc(Cl)cc1 (stereo not given)")
"50.9 µM"

Next, consider the following molecule.
Q. Which TGI is reported for this molecule? "CCN(CC)C(=S)N/N=C(/C)c1cccc(/C(C)=N\NC(=S)N(CC)CC)n1"
A. 7.36 µM

----------
test system: ACHN renal; assay: NCI tumour cell line growth inhibition, 48 h; in the data active = GI50 below about 0.43 µM; inactive = the rest
Outcome (select one): Yes = active, No = inactive

>>> class("CC(C)n1nc(-c2cc3cc(O)ccc3[nH]2)c2c(N)ncnc21")
"Yes"
>>> class("CCCCCCCC/C=C/CCCCCCCC(=O)OC[C@H]1O[C@@H](n2ccc(N)nc2=O)C(F)(F)[C@@H]1O")
"Yes"
>>> class("Cc1cccc(N2CCN(C(=S)c3ccc4c(c3)OCO4)CC2)c1")
"No"

Q. # fetch the recorded call for "N=C1C(c2nc3ccccc3s2)=C(O)CN1c1cc(C(F)(F)F)ccc1Cl" here
A. No

Q. # fetch the recorded call for "Cc1cc(C(=O)Nc2ncc(Cc3cccc(C(F)(F)F)c3)s2)c2ccccc2n1" here
A. Yes

Q. # fetch the recorded call for "C[C@@]12CC=C3c4nc(Nc5cccc(O)c5)sc4CC[C@]3(C)[C@H]1CC[C@]1(C)C(=O)CC[C@@H]21" here
A. No

Q. # fetch the recorded call for "CN1CCN(CCCOc2ccc3nc(Nc4ccc(Cl)c(C(F)(F)F)c4)ccc3c2)CC1" here
A. No

Q. # fetch the recorded call for CCC[CH2][Sn]1([CH2]CCC)[O]CC(CN2CCCC2)[O]1 (stereo not drawn) here
A. No

This collection of values is drawn from PubChem BioAssay (NCI).
